Molecular target: human apical sodium-dependent transporter (SLC10A2, ASBT) (Homo sapiens, UniProt Q12908)
Sequence (Q12908 1-348): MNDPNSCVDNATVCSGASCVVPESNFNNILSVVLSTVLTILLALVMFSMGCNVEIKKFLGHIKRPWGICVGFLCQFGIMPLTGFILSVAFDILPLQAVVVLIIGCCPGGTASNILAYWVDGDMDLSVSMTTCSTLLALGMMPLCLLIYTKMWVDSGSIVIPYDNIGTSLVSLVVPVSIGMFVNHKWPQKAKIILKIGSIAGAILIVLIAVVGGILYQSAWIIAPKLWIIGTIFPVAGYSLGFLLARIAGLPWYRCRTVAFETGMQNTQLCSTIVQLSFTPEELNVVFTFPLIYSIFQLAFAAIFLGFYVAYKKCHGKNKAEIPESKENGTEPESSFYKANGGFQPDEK
Assay: ASBT cis-inhibition of taurocholate uptake in ASBT-MDCK cells
Conditions: read-out: percent taurocholate inhibited at the highest inhibitor concentration
measured-property: inhibition at 1000 µM (%)
# unit: % | format: bare number

Q: Given the compound N=C(N)c1ccc(OCCCCCOc2ccc(C(=N)N)cc2)cc1 [Pentamidine Isethionate, pentamidine isethionate] , what is its reported inhibition at 1000 µM?
A: 74.4

Q: Could you share which inhibition at 1000 µM value was measured for Cc1cccc(Nc2ccncc2S(=O)(=O)NC(=O)NC(C)C)c1 [torsemide] ?
A: 58.4

Q: Give the measured inhibition at 1000 µM of COc1ccc2c(c1)c(CC(=O)O)c(C)n2C(=O)c1ccc(Cl)cc1 [Indomethacin, indomethacin] .
A: 89.5

Q: Could you share which inhibition at 1000 µM value was measured for NS(=O)(=O)c1cc2c(cc1C(F)(F)F)NC(Cc1ccccc1)NS2(=O)=O (stereo not shown) [Bendroflumethiazide, bendroflumethiazide] ?
A: 79.4
